Sourced from patent US20240279176A1

The entries below are paired with their reported log10 of IC50.
target entity: NDM-1 (Klebsiella pneumoniae, UniProt C7C422)
Sequence (C7C422 29-270, looked up): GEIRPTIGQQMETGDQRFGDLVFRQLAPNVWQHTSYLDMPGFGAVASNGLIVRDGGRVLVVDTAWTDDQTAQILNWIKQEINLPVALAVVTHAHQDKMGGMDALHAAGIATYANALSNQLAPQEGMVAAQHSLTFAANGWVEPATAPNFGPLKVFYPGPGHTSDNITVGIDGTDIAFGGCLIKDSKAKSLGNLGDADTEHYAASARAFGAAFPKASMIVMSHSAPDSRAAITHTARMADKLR
assay overview: Enzyme activity: IC50 in fluorescence assay with cephalosporin substrate FC5
Format: biochemical
protocol conditions: 50 pM NDM-1, 1.5 μM FC5, 10 min pre-incubation
result type: log10 of IC50 (log10 of the value in µM)

| molecule | result type | measured number |
| --- | --- | --- |
| COc1cc(F)ccc1-c1c(C(=O)O)[nH]c2c1CCc1ccccc1-2 [Example 56] | log10 of IC50 | -0.84 |
| COc1ccc(F)cc1-c1c(C(=O)O)[nH]c2c1CCc1ccccc1-2 [Example 34] | log10 of IC50 | -0.99 |
| O=C(O)c1[nH]c2c(c1-c1cc(F)cc(F)c1)CCc1ccccc1-2 [Example 52] | log10 of IC50 | -0.80 |
| COc1cc(F)cc(-c2c(C(=O)O)[nH]c3c2CCc2ccccc2-3)c1 [Example 62] | log10 of IC50 | -0.71 |
| O=C(O)c1[nH]c2c(c1-c1ccccc1Cl)CCc1ccccc1-2 [Example 44] | log10 of IC50 | -1.72 |
| Cc1cc(C)cc(-c2c(C(=O)O)[nH]c3c2CCc2ccccc2-3)c1 [Example 48] | log10 of IC50 | -0.60 |

====

The entries below are paired with their reported IC50.
target entity: IMP-1 (Serratia marcescens, UniProt P52699)
Sequence (P52699 19-246, looked up, species assumed): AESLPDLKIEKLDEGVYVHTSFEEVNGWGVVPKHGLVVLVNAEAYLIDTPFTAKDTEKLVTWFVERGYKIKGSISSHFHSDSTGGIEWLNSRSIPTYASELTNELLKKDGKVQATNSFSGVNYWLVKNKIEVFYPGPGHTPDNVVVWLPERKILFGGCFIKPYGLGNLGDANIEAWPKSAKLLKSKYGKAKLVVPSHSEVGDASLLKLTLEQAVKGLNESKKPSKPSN
assay overview: Enzyme activity: IC50 in fluorescence assay with cephalosporin substrate FC5
Format: biochemical
protocol conditions: 100 pM IMP-1, 10 μM FC5, 10 min pre-incubation
result type: IC50

| smiles str | target entity | result |
| --- | --- | --- |
| COc1cc(F)cc(-c2c(C(=O)O)[nH]c3c2CCc2ccccc2-3)c1 | IMP-1 (Serratia marcescens, UniProt P52699) | 3.45 µM |
| O=C(O)c1[nH]c2c(c1-c1ccc(Cl)cc1)CCc1ccccc1-2 | IMP-1 (Serratia marcescens, UniProt P52699) | 1.48 µM |
| O=C(O)c1[nH]c2c(c1-c1cc(F)cc(Cl)c1)CCc1ccccc1-2 | IMP-1 (Serratia marcescens, UniProt P52699) | 0.869 µM |

====

Tested on: Klebsiella pneumoniae ATCC BAA-2146
assay overview: Checkerboard synergy assay in combination with Imipenem
Type: cell-based
protocol conditions: compound at 8 μg/mL; K. pneumoniae ATCC BAA-2146
result type: Fold reduction in Imipenem MIC in the presence of compounds (μg/mL) 8

| smiles str | result |
| --- | --- |
| O=C(O)c1[nH]c2c(c1-c1ccccc1Cl)CCc1ccccc1-2 | 4 fold |
| O=C(O)c1[nH]c2c(c1-c1cccc(F)c1)CCc1ccccc1-2 | 4 fold |
| O=C(O)c1[nH]c2c(c1-c1cc(F)cc(F)c1)CCc1ccccc1-2 | 4 fold |
